system.tested: Cannabinoid receptor 1 (Homo sapiens, UniProt P21554)
Sequence (P21554 whole entry): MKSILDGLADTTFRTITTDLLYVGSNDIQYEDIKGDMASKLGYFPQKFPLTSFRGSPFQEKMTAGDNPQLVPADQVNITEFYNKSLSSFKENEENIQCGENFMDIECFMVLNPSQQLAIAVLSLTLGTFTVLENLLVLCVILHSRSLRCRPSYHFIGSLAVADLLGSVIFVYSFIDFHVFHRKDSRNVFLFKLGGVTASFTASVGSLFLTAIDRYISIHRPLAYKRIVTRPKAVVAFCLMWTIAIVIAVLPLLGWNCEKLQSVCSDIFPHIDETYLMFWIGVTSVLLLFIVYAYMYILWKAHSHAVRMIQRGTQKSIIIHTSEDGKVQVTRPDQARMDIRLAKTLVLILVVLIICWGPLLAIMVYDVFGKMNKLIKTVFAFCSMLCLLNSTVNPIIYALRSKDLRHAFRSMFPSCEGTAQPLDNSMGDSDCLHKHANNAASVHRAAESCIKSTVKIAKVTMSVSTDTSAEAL
experimental.details: Positive allosteric modulatory activity at human CB1R expressed in CHO-K1 cells assessed as increase in CP55940-induced inhibition of forskolin-stimulated cAMP production after 30 mins in presence of CP55940 at EC20 concentration by hit-hunter cAMP assay
Assay type: functional, cell-based
pEC50: −log10 of the molar value.

compound	pEC50
O=[N+]([O-])CC(c1ccccc1)c1c(-c2ccccc2)[nH]c2cc(F)ccc12 (stereo not given)	6.96
O=[N+]([O-])CC(c1ccc(F)cc1)c1c(-c2ccccc2)[nH]c2c(F)cccc12 (stereo not given)	6.57
O=[N+]([O-])CC(c1ccccn1)c1c(-c2ccccc2)[nH]c2ccccc12 (stereo not given)	6.59
O=[N+]([O-])CC(c1ccc(F)cc1)c1c(-c2ccccc2)[nH]c2ccccc12 (stereo not given)	6.36
O=[N+]([O-])CC(c1ccc(F)cc1)c1c(-c2cccc(F)c2)[nH]c2c(F)cccc12 (stereo not given)	6.64

* * *

system.tested: UniProt:P21554
experimental.details: Positive allosteric modulatory activity at human CB1R expressed in CHO-K1 cells assessed as increase in CP55940-induced beta-arrestin2 recruitment after 90 mins in presence of CP55940 at EC20 concentration by pathhunter beta-arrestin assay relative to control
Type: cell-based
Emax values for the compounds below.

compound	Emax (%)
O=[N+]([O-])CC(c1ccncc1)c1c(-c2ccccc2)[nH]c2ccccc12 (stereo not given)	25
O=[N+]([O-])CC(c1ccc(F)cc1)c1c(-c2ccccc2)[nH]c2ccccc12 (stereo not given)	8
O=[N+]([O-])CC(c1ccccc1)c1c(-c2ccccc2)[nH]c2ccncc12 (stereo not given)	2.8
O=[N+]([O-])CC(c1ccc(F)cc1)c1c(-c2cccc(F)c2)[nH]c2cc(F)ccc12 (stereo not given)	56
O=[N+]([O-])CC(c1ccccc1F)c1c(-c2cccc(F)c2)[nH]c2c(F)cccc12 (stereo not given)	82

* * *

Known EC50 of a selection of compounds
system.tested: Cannabinoid receptor 1 (Homo sapiens)
experimental.details: Positive allosteric modulatory activity at human CB1R expressed in CHO-K1 cells assessed as increase in CP55940-induced inhibition of forskolin-induced cAMP accumulation after 90 mins in presence of 100 nM CP55940 by hit-hunter cAMP assay
Type: functional, cell-based
observed.property: EC50 (nM)

compound	system.tested	unit.of.measurement	endpoint.value
O=[N+]([O-])CC(c1ccccc1F)c1c(-c2cccc(F)c2)[nH]c2c(F)cccc12 (configuration not stated)	Cannabinoid receptor 1 (Homo sapiens)	nM	1.7
O=[N+]([O-])CC(c1ccccc1F)c1c(-c2cccc(F)c2)[nH]c2cc(F)ccc12 (configuration not stated)	Cannabinoid receptor 1 (Homo sapiens)	nM	2.2

* * *

system.tested: Cannabinoid receptor 1 (Homo sapiens, UniProt P21554)
experimental.details: Allosteric agonist activity at human CB1R expressed in CHO-K1 cells assessed as increase in beta arrestin2 recruitment after 90 mins by pathhunter beta-arrestin assay
Format: cell-based
observed.property: EC50

compound	observed.property	endpoint.value
O=[N+]([O-])CC(c1ccccc1F)c1c(-c2cccc(F)c2)[nH]c2c(F)cccc12 (configuration not stated)	EC50	> 10 µM
O=[N+]([O-])CC(c1ccccc1F)c1c(-c2cccc(F)c2)[nH]c2cc(F)ccc12 (configuration not stated)	EC50	1.6 µM

* * *

system.tested: Cannabinoid receptor 1 (Homo sapiens, UniProt P21554)
experimental.details: Positive allosteric modulatory activity at human CB1R expressed in CHO-K1 cells assessed as increase in CP55940-induced beta-arrestin2 recruitment after 90 mins in presence of CP55940 at EC20 concentration by pathhunter beta-arrestin assay
Type: cell-based
pEC50: −log10 of the molar value.

compound	qualifier.symbol	pEC50
O=[N+]([O-])CC(c1ccccc1)c1c(-c2ccccc2)[nH]c2cccc(F)c12 (configuration not stated)	=	6.05
O=[N+]([O-])CC(c1ccc(F)cc1)c1c(-c2ccccc2)[nH]c2cc(F)ccc12 (configuration not stated)	=	5.96
O=[N+]([O-])CC(c1ccccc1)c1c(-c2ccccc2)[nH]c2cccnc12 (configuration not stated)	=	5.80
O=[N+]([O-])CC(c1cccnc1)c1c(-c2ccccc2)[nH]c2ccccc12 (configuration not stated)	<	5.00
O=[N+]([O-])CC(c1ccccc1)c1c(-c2ccccc2)[nH]c2c(F)cccc12 (configuration not stated)	=	6.12
O=[N+]([O-])CC(c1ccccc1F)c1c(-c2cccc(F)c2)[nH]c2cc(F)ccc12 (configuration not stated)	=	6.12
O=[N+]([O-])CC(c1ccc(F)cc1)c1c(-c2cccc(F)c2)[nH]c2cc(F)ccc12 (configuration not stated)	=	5.68

Every entry's value here was drawn from ChEMBL document CHEMBL4376840.
